pEC50 overview
test system: SARS-CoV-2 variant Beta; experiment: microbe, parasite or virus in culture; assay type: cell-based; settings: Severe acute respiratory syndrome coronavirus 2; n = 6
pEC50: −log10 of the molar value.
ATTRIBUTE_MEASURED: pEC50

MOLECULE	ASSAYED_SYSTEM	INEQUALITY_SYMBOL	ENDPOINT_VALUE
Cc1cccc(/C=N/Nc2cc(N3CCOCC3)nc(OCCc3ccccn3)n2)c1 [Apilimod]	SARS-CoV-2 variant Beta	>	8.16
COc1ccc(C(=O)Nc2cccc(C(F)(F)F)c2)cc1Nc1nc(-c2cccnc2)c2[nH]ccc2n1 [XMU-MP-7]	SARS-CoV-2 variant Beta	=	7.91
CCC(CC)COC(=O)[C@H](C)N[P@](=O)(OC[C@H]1O[C@@](C#N)(c2ccc3c(N)ncnn23)[C@H](O)[C@@H]1O)Oc1ccccc1 [Remdesivir]	SARS-CoV-2 variant Beta	=	6.31
